All values here come from patent US10765114B2.

System: Key Grass and Sedge Weeds as well as Grass Crops
Test Name: Post-Emergent Test II (Table 6)
Type: in vivo
Condition Parameters: post-emergence, 336 h, CYPSS, 70 g ai/ha, 14 days after application, read-out: Visual Growth Reduction (%) 14 Days After Application CYPSS
Give pest or weed control at 70 g/ha for every item shown.

COC(=O)c1nc(-c2ccc(C(F)(F)F)nc2F)nc(N)c1Cl | 0 to 29%

Batch lookup, pest or weed control at 70 g/ha per entry.
1. COc1nc(C(F)(F)F)ccc1-c1nc(C(=O)O)c(Cl)c(N)c1F
2. Nc1c(F)c(-c2ccc(I)nc2)nc(C(=O)O)c1Cl
3. Cc1c(-c2ccc(C(F)(F)F)nc2)nc(C(=O)O)c(Cl)c1N
4. COC(=O)c1nc(-c2ccc(OC)nc2)c(F)c(N)c1Cl

A:
1. 0 to 29%
2. 95 to 100%
3. 95 to 100%
4. 0 to 29%

Dear reader, for each entry below, please note its pest or weed control at 70 g/ha.
1. COC(=O)c1nc(-c2ccc(Cl)c(F)c2OC)cc(N)c1Cl
2. COC(=O)c1nc(-c2ccc(C(F)(F)F)nc2)cc(N)c1Cl
3. COC(=O)c1nc(-c2ccc(Cl)nc2Cl)cc(N)c1Cl

A:
1: 30 to 44%; 2: 60 to 74%; 3: 0 to 29%
